Tested on: Escherichia coli
experiment notes: in vitro antibacterial evaluation, MIC by broth dilution
Assay type: cell-based
experimental conditions: 18 hours at 35° C.
Measured MIC Escherichia coli (GC 4560) of individual entries
Numeric only. Scale: µg/mL

[[record]]
compound = "CC(c1ccccc1)C1NC(=O)CNC(=O)C(CO)NC(=O)C(C(O)C2CNC(=N)N2C2OC(CO)C(O)C(O)C2O)NC(=O)C(C(O)C2CNC(=N)N2)NC(=O)C(Cc2ccc(OC3OC(CO)C(OC4OC(CO)C(O)C5OC6(CCCCCCCCCCCC6)OC45)C(O)C3O)cc2)NC1=O (stereo not shown) [Example 210a]"
measurement_kind = "MIC Escherichia coli (GC 4560)"
recorded_result = 16

[[record]]
compound = "CC(c1ccccc1)C1NC(=O)CNC(=O)C(CO)NC(=O)C(C(O)C2CNC(=N)N2C2OC(CO)C(O)C(O)C2O)NC(=O)C(C(O)C2CNC(=N)N2)NC(=O)C(Cc2ccc(OC3OC(CO)C(OC4OC5COC6(OC5C(O)C4O)C4CCCC6CCC4)C(O)C3O)cc2)NC1=O (stereo not shown)"
measurement_kind = "MIC Escherichia coli (GC 4560)"
recorded_result = 2


Need MIC Escherichia coli (GC 4560), item CC(c1ccccc1)C1NC(=O)CNC(=O)C(CO)NC(=O)C(C(O)C2CN(Cc3ccc4ccccc4c3)C(=N)N2C2OC(CO)C(O)C(O)C2O)NC(=O)C(C(O)C2CNC(=N)N2)NC(=O)C(Cc2ccc(OC3OC(CO)C(OC4OC5COC6(OC5C(O)C4O)C4CC5CC(C4)CC6C5)C(O)C3O)cc2)NC1=O (stereo not shown)
4

// provenance: patent US6914045B2
